Target: T1, murine RSPO3 (R&D Systems Cat. No. 4120-RS/CF) (murine, UniProt Q2TJ95 22-277, limits assumed)
T1 construct: also called mouse RSPO3
T1 sequence (looked up): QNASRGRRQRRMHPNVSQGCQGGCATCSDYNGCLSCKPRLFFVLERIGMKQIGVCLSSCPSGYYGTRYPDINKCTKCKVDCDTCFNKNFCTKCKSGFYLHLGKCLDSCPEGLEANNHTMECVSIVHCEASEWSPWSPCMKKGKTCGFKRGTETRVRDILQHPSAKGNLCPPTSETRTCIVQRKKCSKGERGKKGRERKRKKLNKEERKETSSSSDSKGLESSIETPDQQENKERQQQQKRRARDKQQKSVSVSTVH
Assay: SPR (BIAcore T200), RSPO3 immobilized, antibody injected, 25 C, 1:1 Langmuir
Criterion: Kd strictly under 0.8 nM. Met: Condition met. Not met: Condition not met.

# example entries with known answers
hu15F3.L4H2 (antibody, V domains shown, CDR graft only (L4, H2); also called humanized 15F3) VH: EVQLVESGGGVVQPGRSLRLSCAASGFTFSDYDMAWVRQAPGKGLEWVATIIYDGSRAYFGDSVRGRFTISRDNSKNTLYLQMNSLRAEDTAVYYCTAHDRSFDYWGQGTMVTVSS VL: DIQMTQSPSSLSASVGDRVTITCLVSEDISNDFVWYQQKPGKAPKLLIYAASRLQDGVPSRFSGSGSGTDFTLTISSLQPEDFATYYCQQSYKYPPTFGQGTKLEIK; Condition met
chimeric 11C10 (antibody, V domains shown, Chimeric counterpart with the rat 11C10 variable domains) VH: EVQLVESGGGLVQPGRSLKLSCAASGFTFSDYDMAWVRQAPKKGLEWVATIIYDGSRTYYRDSVKGRFTISRANAKSTLYLQMDSLRSEDTATYYCATHDKTFDYWGQGVMVTVSS VL: DIQMTQSPASLSASLGETVTIECRASEDIYSDLAWYQQKPGNSPQLLIYDVNSLIHGVPSRFSGSGSGTQFSLKINNLQSEDVASYFCQQYDNYPNTFGAGTKLELK; Condition not met
hu4A6.L4H2 (antibody, V domains shown, CDR graft only (L4, H2); also called humanized 4A6) VH: EVQLVESGGGVVQPGRSLRLSCAASGFTFSDYDMAWVRQAPGKGLEWVATIIYDGSRTYYRDSVKGRFTISRDNSKNTLYLQMNSLRAEDTAVYYCAAHDRSFDYWGQGTMVTVSS VL: DIQMTQSPSSLSASVGDRVTITCLASEDISNDLVWYQQKPGKAPKLLIYAASRLQDGVPSRFSGSGFGTDFTLTISSLQPEDFATYYCQQSYKYLPTFGQGTKLEIK; Condition met

-- ask I wonder whether hu11C10.L5H1 (antibody, V domains shown, CDR graft light chain L5 with H1; also called humanized 11C10) VH: EVQLVESGGGVVQPGRSLRLSCAASGFTFSDYDMAWVRQAPGKGLEWVATIIYDGSRTYYRDSVKGRFTISRDNSKNTLYLQMNSLRAEDTAVYYCATHDKTFDYWGQGTMVTVSS VL: DIQLTQSPSSLSASVGDRVTITCRASEDIYSDLAWYQQKPGKAPKLLIYDVNSLIHGVPSRFSGSGSGTDFTLTISSLQPEDFATYYCQQYDNYPNTFGQGTKLEIK has Kd below 0.8 nM. Can you tell?
-- reply Condition not met

-- ask Quick check: does chimeric 4A6 (antibody, V domains shown, Chimeric counterpart of hu4A6 with the rat 4A6 variable domains) VH: EVQLVESGGGSVQPGRSLKVSCAASGFTFSDYDMAWVRQAPKKGLEWVATIIYDGSRTYYRDSVKGRFTLSRDNTKSTLCLQMDSLRSEDTATYYCAAHDRSFDYWGQGIMVTVSS VL: DIQMTQSPASLSASLGETVSIECLASEDISNDLVWYQQKSGKSPQLLIYAASRLQDGVPSRFSGSGFGTRFSLKISGMQPEDEADYFCQQSYKYLPTFGAGTKLGLK have Kd under 0.8 nM?
-- reply Condition met

-- ask I'd appreciate it if you could check whether anti-RSPO3 antibody 5D6 (WO2015/058132) (antibody, V domains shown) VH: EVQLQESGPSLVKPSQTLSLTCSVTGDSITSGYWNWIRKFPGNKFEYMGYISYSGKTYQNPSLKSRISITRDTSKNQYHLQLNSVTTEDTATYYCATYYGYGGPWFAYWGQGTLVTVSA VL: DIVLTQSPSSMYASLGERVTITCKASQDIDSYLSWFQQKPGKSPKTLIYLTNRLVDGVPSRFSGSGSGQDYSLTISSLEYEDMGIYYCLHYDEFPLTFGAGTKLEIK has Kd smaller than 0.8 nM.
-- reply Condition not met

-- ask Record chimeric 15F3 (antibody, V domains shown, Chimeric counterpart with the rat 15F3 variable domains) VH: EVQLVESGGGLVQPGRSLKLSCAASGFTFSDYDMAWVRQAPKKGLEWVATIIYDGSRAYFGDSVRGRFTVSRDNTKSTLYLQMDSLRSEDTATYYCTAHDRSFDYWGQGVMVTVSS VL: DIQMTQSPASLSASLGETVSIECLVSEDISNDFVWYQQKSGKSPQLLIYAASRLQDGVPSRFSGSGSGTRFSLRISGMQPEDEAEYFCQQSYKYPPTFGAGTKLELK : is its Kd strictly below 0.8 nM?
-- reply Condition not met
